Biological target: human PDE1B enzyme (Homo sapiens (Human), UniProt Q01064)
Assay: IMAP TR-FRET PDE1B enzymatic assay
Format: biochemical
Settings: negative log of half-maximal molar inhibitory concentration; 200 nM FAM-cAMP; values given as bins; read-out: PDE1b (pIC50) (converted)
Experimental readout: IC50

Would you please look over these solved cases?
| Molecule | IC50 |
| --- | --- |
| Cc1oc2ncnc(NC3(C)CC3)c2c1C(=O)N1CCC(c2cccnc2)C1 (stereo not drawn) [Example 71] | 10 to 100 nM |
| Cc1oc2ncnc(NC3(C)CC3)c2c1C(=O)Nc1cnn(-c2ccccn2)c1 [Example 419] | 10 to 100 nM |
| Cc1cc(NC(=O)c2c(C)oc3ncnc(NC4(C)CC4)c23)no1 [Example 142] | 10 to 100 nM |
| Cc1oc2ncnc(NC3(C)CC3)c2c1C(=O)N1CCc2c(ncnc2NC2CCOCC2)C1 [Example 794] | 10 to 100 nM |
| Cc1oc2ncnc(NC3(C)CC3)c2c1C(=O)NC(C)c1ccncn1 (stereo not drawn) [Example 317] | 10 to 100 nM |

Kindly give each listed record's IC50.
1. Cc1oc2ncnc(NC3(C)CC3)c2c1C(=O)NC(C)C(C)C (stereo not drawn) [Example 170]
2. Cc1csc(CNC(=O)c2c(C)oc3ncnc(NC4(C)CC4)c23)n1 [Example 703]
3. Cc1oc2ncnc(NC3(C)CC3)c2c1C(=O)NC(C)c1ccc(F)cc1 (stereo not drawn) [Example 68]
4. Cc1oc2ncnc(NC3(C)CC3)c2c1C(=O)NCCC(F)(F)F [Example 754]
5. Cc1oc2ncnc(NC3(C)CC3)c2c1C(=O)NCc1ccc[nH]1 [Example 98]
6. COc1ccc(N2CCCN(C(=O)c3c(C)oc4ncnc(NC5(C)CC5)c34)CC2)cc1 [Example 159]

10 to 100 nM
10 to 100 nM
10 to 100 nM
10 to 100 nM
10 to 100 nM
100 to 1000 nM

Kindly give each listed record's IC50.
1. Cc1oc2ncnc(NC3(C)CC3)c2c1C(=O)N1CCN(c2cc(F)ncn2)CC1 [Example 161]
2. Cc1oc2ncnc(NC3(C)CC3)c2c1C(=O)N1CCN(c2nc(Cl)c(Cl)c(Cl)c2Cl)CC1 [Example 308]
3. COc1ccc([C@H](C)NC(=O)c2c(C)oc3ncnc(NC4(C)CC4)c23)c(F)c1 [Example 305]
4. COc1ncnc2c1CCN(C(=O)c1c(C)oc3ncnc(NC4(C)CC4)c13)CC2 [Example 629]

1: 10 to 100 nM; 2: 10 to 100 nM; 3: 10 to 100 nM; 4: 100 to 1000 nM

Kindly give each listed record's IC50.
1. Cc1oc2ncnc(NC3(C)CC3)c2c1C(=O)NC(C)(C)CF [Example 374]
2. Cc1nc(NC(=O)c2c(C)oc3ncnc(NC4(C)CC4)c23)oc1C [Example 442]
3. Cc1oc2ncnc(NC3(C)CC3)c2c1C(=O)N(C)Cc1ncco1 [Example 692]
4. Cc1nn(C)c(C)c1NC(=O)c1c(C)oc2ncnc(NC3(C)CC3)c12 [Example 418]
5. Cc1oc2ncnc(NC3(C)CC3)c2c1C(=O)N1CCc2c(Cl)ncnc2C1 [Example 6]
6. Cc1oc2ncnc(NC3(C)CC3)c2c1C(=O)N1CCc2c(C#N)ncnc2C1 [Example 24]
7. Cc1oc2ncnc(NC3(C)CC3)c2c1C(=O)N1CCOCC1 [Example 117]
8. Cc1oc2ncnc(NC3(C)CC3)c2c1C(=O)NCc1cccs1 [Example 190]

1. 10 to 100 nM
2. 10 to 100 nM
3. 100 to 1000 nM
4. 10 to 100 nM
5. 10 to 100 nM
6. 100 to 1000 nM
7. 100 to 1000 nM
8. 10 to 100 nM

Kindly give each listed record's IC50.
1. COc1cc2c(cn1)CN(C(=O)c1c(C)oc3ncnc(NC4(C)CC4)c13)CC2 [Example 634]
2. Cc1oc2ncnc(NC3(C)CC3)c2c1C(=O)NC1CCc2ccccc21 (stereo not drawn) [Example 230]

1. 10 to 100 nM
2. 10 to 100 nM

Kindly give each listed record's IC50.
1. Cc1oc2ncnc(NC3(C)CC3)c2c1C(=O)NC1CCC1 [Example 212]
2. Cc1nc(CNC(=O)c2c(C)oc3ncnc(NC4(C)CC4)c23)cc(=O)[nH]1 [Example 662]
3. Cc1oc2ncnc(NC3(C)CC3)c2c1C(=O)N1CCC(c2nccn2C)C1 (stereo not drawn) [Example 320]
4. Cc1oc2ncnc(NC3(C)CC3)c2c1C(=O)NCCN=S(C)(C)=O [Example 756]

10 to 100 nM
10 to 100 nM
10 to 100 nM
100 to 1000 nM

Kindly give each listed record's IC50.
1. Cc1nn(C(=O)c2c(C)oc3ncnc(NC4(C)CC4)c23)c(C)c1CN1CCOCC1 [Example 415]
2. Cc1oc2ncnc(NC3(C)CC3)c2c1C(=O)N1Cc2nc(C(C)C)[nH]c(=O)c2C1 [Example 682]
3. Cc1oc2ncnc(NC3(C)CC3)c2c1C(=O)NCC1CC1 [Example 746]
4. Cc1oc2ncnc(NC3(C)CC3)c2c1C(=O)NC1CCCc2cccnc21 (stereo not drawn) [Example 310]
5. Cc1oc2ncnc(NC3(C)CC3)c2c1C(=O)NCc1cnc(F)cn1 [Example 9]
6. Cc1oc2ncnc(NC3(C)CC3)c2c1C(=O)N1CCc2c(ncnc2OCF)C1 [Example 17]
7. Cc1oc2ncnc(NC3(C)CC3)c2c1C(=O)NCCc1nc2cc(F)ccc2o1 [Example 730]

10 to 100 nM
100 to 1000 nM
10 to 100 nM
100 to 1000 nM
10 to 100 nM
10 to 100 nM
10 to 100 nM
